Provide the reported inhibition at 6 µg/mL of each item.
# assay-system: Rev-RRE complexes (recombinant Rev protein, synthetic 32P-labelled RRE RNA) (Human immunodeficiency virus type 1 group M subtype B)
# Sequence (P04618 whole entry, looked up, one chain of several): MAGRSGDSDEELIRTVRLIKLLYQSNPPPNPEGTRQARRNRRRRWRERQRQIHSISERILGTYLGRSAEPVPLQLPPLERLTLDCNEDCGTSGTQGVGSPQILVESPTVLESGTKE
# method-description: Rev-RRE binding inhibition, nitrocellulose filter binding assay with scintillation counting
# Set-up: species or system Human Immunodeficiency Virus (HIV)
# study-conditions: array assayed at 6 ug/mL, non-specific competitor RNA, read-out: % inh

Some entries whose results are on file:
compound | inhibition at 6 µg/mL
O=C(NC1CCCc2ccccc21)/C(=C/c1ccc(Cl)cc1)NC(=O)c1ccc(C(F)(F)F)cc1 (stereo not shown) | 92%
O=C(N/C(=C\c1cccc(C(F)(F)F)c1)C(=O)N1CCC(Cc2ccccc2)CC1)c1ccc2ccccc2c1 | 95%
O=C(NC1CCCCC1)/C(=C/c1ccccc1)NC(=O)c1ccc(Cl)cc1Cl | 98%
O=C(NCc1cccc2ccccc12)/C(=C/c1ccc(-c2ccccc2)cc1)NC(=O)c1ccc(Cl)cc1Cl | 90%
Cc1ccc(CCNC(=O)/C(=C/c2cccc(Oc3ccccc3)c2)NC(=O)c2ccc(Cl)cc2Cl)cc1 | 95%
O=C(NC(c1ccccc1)c1ccccc1)/C(=C/c1ccc(-c2ccccc2)cc1)NC(=O)c1ccc(Cl)cc1Cl | 96%

// next entry
Fill blank: measured inhibition at 6 µg/mL of the compound O=C(NCC(c1ccccc1)c1ccccc1)/C(=C/c1cccc(C(F)(F)F)c1)NC(=O)c1ccc(Cl)cc1Cl is ____.
93%
